# subject.of.test: Amine oxidase [flavin-containing] A (Homo sapiens, UniProt P21397)
# assay.procedure: Competitive inhibition of human recombinant MAO-A assessed as dissociation constant for enzyme-inhibitor-substrate complex by Lineweaver-Burk plot analysis

# smiles.string, Ki / mM
rows = [
    ("c1ccc(CCN2CCCCC2)cc1", 3.68),
]

----------
# subject.of.test: Amine oxidase [flavin-containing] B (Homo sapiens)
# assay.procedure: Inhibition of human recombinant MAOB expressed in insect cells using benzylamine hydrochloride as substrate after 30 mins
pIC50: −log10 of the molar value.

# smiles.string, pIC50
data = [
    ("Clc1ccc(OCCCN2CC=CCC2)c(Cl)c1", 4.18),
    ("C1=CCN(Cc2ccccc2)CC1", 2.18),
    ("Fc1ccc(CCN2CC=CCC2)cc1", 2.28),
    ("C1=CCN(CCc2ccccc2)CC1", 2.93),
    ("CC1=CCN(CCc2ccccc2)CC1", 2.90),
    ("O=[N+]([O-])c1ccc(CCN2CC=CCC2)cc1", 3.57),
    ("COc1ccc(CCN2CC=CCC2)cc1OC", 2.87),
    ("C1=CCN(CCCc2ccccc2)CC1", 3.09),
]

----------
# subject.of.test: Amine oxidase [flavin-containing] A (Homo sapiens, UniProt P21397)
# assay.procedure: Mixed noncompetitive inhibition of human recombinant MAO-A assessed as dissociation constant for enzyme-inhibitor complex by Lineweaver-Burk plot analysis

# smiles.string, Ki [µM]
measured = [
    ("CC1=CCN(CCc2ccccc2)CC1", 408),
]

----------
# subject.of.test: UniProt P21397
# Sequence (P21397 whole entry): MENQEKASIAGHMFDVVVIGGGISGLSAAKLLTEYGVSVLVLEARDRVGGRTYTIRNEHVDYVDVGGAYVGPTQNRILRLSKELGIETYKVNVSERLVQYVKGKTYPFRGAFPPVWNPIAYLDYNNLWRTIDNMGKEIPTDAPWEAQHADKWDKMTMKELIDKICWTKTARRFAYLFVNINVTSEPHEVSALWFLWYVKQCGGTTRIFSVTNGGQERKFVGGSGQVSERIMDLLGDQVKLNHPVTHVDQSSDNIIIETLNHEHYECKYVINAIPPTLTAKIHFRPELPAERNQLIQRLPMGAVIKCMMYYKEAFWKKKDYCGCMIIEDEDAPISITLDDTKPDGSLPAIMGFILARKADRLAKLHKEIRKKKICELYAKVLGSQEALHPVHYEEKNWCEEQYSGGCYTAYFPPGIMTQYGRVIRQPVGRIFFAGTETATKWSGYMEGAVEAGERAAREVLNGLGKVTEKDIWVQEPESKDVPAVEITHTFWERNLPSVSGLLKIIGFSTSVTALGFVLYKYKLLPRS
# assay.procedure: Irreversible inhibition of human recombinant MAOA expressed in insect cells using kynuramine as substrate by Kitz-Wilson plot analysis
# conditions: probe kynuramine
property.label: kinact (s⁻¹)

# smiles.string, subject.of.test, assay.result
data = [
    ("Clc1ccc(OCCCN2CC=CCC2)c(Cl)c1", "UniProt P21397", 0.002),
]

----------
# subject.of.test: Amine oxidase [flavin-containing] A (Homo sapiens, UniProt P21397)
# Sequence (P21397 whole entry): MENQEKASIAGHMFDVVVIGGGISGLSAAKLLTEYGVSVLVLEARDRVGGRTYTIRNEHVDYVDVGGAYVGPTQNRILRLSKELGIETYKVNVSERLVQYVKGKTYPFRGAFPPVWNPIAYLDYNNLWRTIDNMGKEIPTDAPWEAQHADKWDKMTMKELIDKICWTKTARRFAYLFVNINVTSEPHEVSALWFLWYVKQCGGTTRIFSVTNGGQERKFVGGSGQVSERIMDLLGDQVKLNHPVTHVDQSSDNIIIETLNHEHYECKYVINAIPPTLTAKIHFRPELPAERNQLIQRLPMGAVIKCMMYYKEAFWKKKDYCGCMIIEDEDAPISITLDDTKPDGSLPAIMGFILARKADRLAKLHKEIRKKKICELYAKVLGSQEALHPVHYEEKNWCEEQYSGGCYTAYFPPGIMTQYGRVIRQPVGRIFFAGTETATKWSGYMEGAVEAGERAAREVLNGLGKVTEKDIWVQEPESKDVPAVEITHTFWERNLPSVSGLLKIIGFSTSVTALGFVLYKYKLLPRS
# assay.procedure: Inhibition of human recombinant MAOA expressed in insect cells using kynuramine substrate after 60 mins
pIC50: −log10 of the molar value.
property.label: pIC50

# molecule, assay.result
records = [
    ("Fc1ccc(CCN2CC=CCC2)cc1", 4.56),
    ("COc1ccc(CCN2CC=CCC2)cc1", 4.92),
    ("C1=CCN(CCc2ccccc2)CC1", 4.38),
    ("Clc1ccc(CCN2CC=CCC2)c(Cl)c1", 5.21),
    ("C1=CCN(CCCc2ccccc2)CC1", 4.06),
    ("O=[N+]([O-])c1ccc(CCN2CC=CCC2)cc1", 4.42),
    ("COc1ccc(CCN2CC=CCC2)cc1OC", 3.96),
    ("CC1=CCN(CCc2ccccc2)CC1", 3.21),
    ("Clc1ccc(OCCCN2CC=CCC2)c(Cl)c1", 5.59),
    ("c1ccc(CCN2CCCCC2)cc1 [1-PHENETHYLPIPERIDINE]", 3.12),
    ("C1=CCN(Cc2ccccc2)CC1", 3.80),
]

----------
# subject.of.test: Amine oxidase [flavin-containing] B (Homo sapiens, UniProt P27338)
# Sequence (P27338 whole entry): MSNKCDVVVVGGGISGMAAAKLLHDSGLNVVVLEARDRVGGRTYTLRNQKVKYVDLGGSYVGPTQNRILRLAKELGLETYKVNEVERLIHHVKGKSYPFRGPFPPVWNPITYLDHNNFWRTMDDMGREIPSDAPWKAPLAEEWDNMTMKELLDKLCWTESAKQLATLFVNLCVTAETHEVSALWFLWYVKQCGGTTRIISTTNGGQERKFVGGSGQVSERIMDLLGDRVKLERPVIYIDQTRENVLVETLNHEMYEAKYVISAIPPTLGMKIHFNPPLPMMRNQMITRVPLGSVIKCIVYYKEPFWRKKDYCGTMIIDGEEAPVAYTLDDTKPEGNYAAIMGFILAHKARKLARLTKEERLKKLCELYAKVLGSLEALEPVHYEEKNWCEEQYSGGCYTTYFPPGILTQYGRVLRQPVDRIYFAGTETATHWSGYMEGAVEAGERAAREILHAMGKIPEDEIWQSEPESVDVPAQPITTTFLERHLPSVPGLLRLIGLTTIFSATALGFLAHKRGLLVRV
# assay.procedure: Inhibition of human recombinant MAOB expressed in insect cells using benzylamine hydrochloride as substrate after 30 mins
pIC50: −log10 of the molar value.

# compound, pIC50
rows = [
    ("Clc1ccc(CCN2CC=CCC2)c(Cl)c1", 4.17),
    ("c1ccc(CCN2CCCCC2)cc1 [1-PHENETHYLPIPERIDINE]", 3.12),
    ("COc1ccc(CCN2CC=CCC2)cc1", 4.02),
]
